# Experimental system: T1, human DLL3 (ACRO, DLL3-H52H4) (human, UniProt Q9NYJ7 27-492)
# T1 construct: Bought
# T1 sequence: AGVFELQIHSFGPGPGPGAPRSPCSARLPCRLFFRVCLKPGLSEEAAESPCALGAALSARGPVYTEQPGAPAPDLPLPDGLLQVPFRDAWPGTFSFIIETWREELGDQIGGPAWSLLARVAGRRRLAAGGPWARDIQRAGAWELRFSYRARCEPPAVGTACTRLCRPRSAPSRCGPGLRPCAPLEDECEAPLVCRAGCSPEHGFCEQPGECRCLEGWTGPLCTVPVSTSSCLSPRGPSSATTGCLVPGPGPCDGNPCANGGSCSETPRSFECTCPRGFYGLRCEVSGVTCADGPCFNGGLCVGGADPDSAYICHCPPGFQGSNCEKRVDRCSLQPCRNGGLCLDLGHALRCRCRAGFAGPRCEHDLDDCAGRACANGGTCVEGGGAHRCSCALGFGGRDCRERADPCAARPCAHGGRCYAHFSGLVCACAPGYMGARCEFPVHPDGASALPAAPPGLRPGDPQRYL
# Assay name: SPR Biacore 8K, Ab captured on Protein A
Value kind: koff (s⁻¹)

- Binder: "hu6L2H12 (antibody, human IgG1, kappa, V domains shown) VH: EVQLVQSGSELKKPGASVKVSCKASGYTFTDYYMNWVRQAPGQGLEWMGIINPYSGVTIYNHKFKGRFALSVDKSSNTAYLQISSLKAEDTAVYYCARQDSLLDYAMDYWGQGTTVTVSS VL: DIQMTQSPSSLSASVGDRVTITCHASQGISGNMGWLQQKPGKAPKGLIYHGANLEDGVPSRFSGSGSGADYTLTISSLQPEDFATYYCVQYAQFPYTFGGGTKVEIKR"
  Quantitative readout: 0.000913
- Binder: "hu110L1H3 (antibody, human IgG1, kappa, V domains shown) VH: EVQLVQSGAEVKKPGASVKVSCKTSGYTFTDYYMNWVRQAPGQSLEWMGIINPYQGGTSYTQKFKGRVTITVDKSASTAYMELSSLRSEDTAVYYCARHFYDSSYLTYSTMDYWGQGTTVTVSS VL: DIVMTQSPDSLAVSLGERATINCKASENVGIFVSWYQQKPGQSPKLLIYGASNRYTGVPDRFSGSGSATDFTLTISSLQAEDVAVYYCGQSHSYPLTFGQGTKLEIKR"
  Quantitative readout: "4.75e-05"
- Binder: "hu6L2H7 (antibody, human IgG1, kappa, V domains shown) VH: EVQLVESGGGLVQPGGSLKLSCAASGYTFTDYYMNWVRQASGKGLEWVGIINPYSGVTIYNHKFKGRFTLSVDKSKNTAYLQMNSLKTEDTAVYYCARQDSLLDYAMDYWGQGTTVTVSS VL: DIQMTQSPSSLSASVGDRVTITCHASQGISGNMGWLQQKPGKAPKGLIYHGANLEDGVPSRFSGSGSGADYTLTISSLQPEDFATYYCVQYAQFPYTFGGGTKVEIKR"
  Quantitative readout: 0.00205
